These entries and their values trace back to patent US20040197268A1.

Item-by-item account of pIC50
- MEASUREMENT TARGET: Aβ(1-42) (Homo sapiens, UniProt P05067)
- Construct: Required Aβ(1-42)(California Peptide) was dried from its hexafluoroisopropanol (HFIP) stock solution
- Sequence (P05067 672-713 limits assumed): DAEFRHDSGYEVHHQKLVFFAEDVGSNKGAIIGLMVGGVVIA
- PROTOCOL: BATYM Assay (Aβ(1-42) aggregation, Thioflavin T fluorescence)
- STUDY CONDITIONS: Aβ 1-42 final concentration 100 μM, PBS pH 7.4, 37° C., 1 day, ThT fluorescence
// pIC50 is dimensionless: -log10 of concentration (M)

Below, each entry is followed by its recorded pIC50 result.
// pIC50 value for CCCCCN(CCCCC)c1ccc(/C=C2\SC(=S)N(CC(=O)NS(=O)(=O)c3ccccc3)C2=O)cc1 : 5.70

pIC50 recorded for this molecule, CCCC1CCN(c2ccc(/C=C3\SC(=S)N(Cc4cc(=O)c(O)co4)C3=O)cc2)CC1 , is 5.62

Continuing:
So for CCCCCCN(C)c1ccc(/C=C2\SC(=S)N(CCNS(=O)(=O)C(F)(F)F)C2=O)cc1 , the logged pIC50 turned out to be 5.79

Item: CCCCCCN(C)c1ccc(/C=C2\SC(=S)N(CS(=O)(=O)O)C2=O)cc1 | pIC50: 5.47

Measured pIC50, CCCCCCN(C)c1ccc(/C=C2\SC(=S)N(CCS(=O)(=O)NC(=O)C(F)(F)F)C2=O)cc1 : 5.65

Record summary for CCCC1CCN(c2ccc(/C=C3\SC(=S)N(CC(=O)NS(C)(=O)=O)C3=O)cc2)CC1 : reported pIC50 = 5.42

Field pIC50 (entry CCCCN(CCCC)c1ccc(/C=C2\SC(=S)N(CC(=O)NS(=O)(=O)C(F)(F)F)C2=O)cc1 ) reads 5.73

* * *

- MEASUREMENT TARGET: beta amyloid peptide Aβ(1-40) (Homo sapiens)
- Construct: 0.5 mg/mL AP (140) peptide in 20% HFIP+0.1 μL/assay radioiodinated ^125I Aβ(1-40)
- Sequence (P05067 672-711 limits assumed): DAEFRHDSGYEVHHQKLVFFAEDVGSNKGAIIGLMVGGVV
- PROTOCOL: BAPA (Beta-Amyloid Peptide Aggregation), pH 6.0
- STUDY CONDITIONS: Aβ(1-40) 33 μM, pH 6.0, 2 to 4 hours at room temperature, filtration
Rule for this label: rule met means IC50 is less than 30 µM; rule not met means IC50 is at least 30 µM.

Please review the following examples before continuing.
Exercise: Please check: IC50 for O=C(NS(=O)(=O)CCN1C(=O)/C(=C/c2ccc(N3CCC4CCCCC4C3)cc2)SC1=S)c1ccccc1 (stereo not shown) , strictly under 30 µM or not?
Solution: rule not met

Exercise: Strictly below 30 µM: is that where IC50 of CCCCCCN(C)c1ccc(/C=C2\SC(=S)N(CCS(=O)(=O)NC(=O)C(F)(F)F)C2=O)cc1 sits?
Solution: rule not met

Exercise: Bench note: check whether CCCCN(CCCC)c1ccc(/C=C2\SC(=S)N(CCS(=O)(=O)NC(=O)c3ccccc3)C2=O)cc1 shows IC50 below 30 µM
Solution: rule not met

Exercise: Dear reviewer, please state whether O=C(NS(=O)(=O)CCN1C(=O)/C(=C/c2ccc(N3CCC4CCCCC4C3)cc2)SC1=S)c1ccc(F)cc1 (stereo not shown) has IC50 strictly beneath 30 µM.
Solution: rule not met

Exercise: Problem: For the compound CCCCCCN(C)c1ccc(/C=C2\SC(=S)N(CS(=O)(=O)O)C2=O)cc1 , is IC50 under 30 µM?
Solution: rule met

New cases:
Exercise: Does the reported IC50 of CCCCCN(CCCCC)c1ccc(/C=C2\SC(=S)N(CC(=O)NS(=O)(=O)C(F)(F)F)C2=O)cc1 stay below 30 µM?
Solution: rule met

Exercise: Strictly below 30 µM in IC50? CCCCCN(CCCCC)c1ccc(/C=C2\SC(=S)N(CC(=O)NS(=O)(=O)c3ccccc3)C2=O)cc1
Solution: rule not met

Exercise: Take the compound CCCCCCN(C)c1ccc(/C=C2\SC(=S)N(CCS(=O)(=O)O)C2=O)cc1 and say whether its IC50 is less than 30 µM.
Solution: rule met

Exercise: Just wondering, is IC50 of CCCCCCN(C)c1ccc(/C=C2\SC(=S)N(CCNS(=O)(=O)c3ccccc3)C2=O)cc1 below 30 µM?
Solution: rule met

Exercise: Decide: IC50 of CCCCN(CCCC)c1ccc(/C=C2\SC(=S)N(CC(=O)NS(=O)(=O)C(F)(F)F)C2=O)cc1 strictly below 30 µM?
Solution: rule not met

Exercise: Input CCCC1CCN(c2ccc(/C=C3\SC(=S)N(CC(=O)NS(C)(=O)=O)C3=O)cc2)CC1 ; condition: IC50 strictly below 30 µM. Does it hold?
Solution: rule not met

Exercise: Does CCCCCCN(C)c1ccc(/C=C2\SC(=S)N(Cc3nnn[nH]3)C2=O)cc1 have IC50 strictly under 30 µM?
Solution: rule not met

Exercise: Could you please tell me whether IC50 recorded for CCCCN(CCCC)c1ccc(/C=C2\SC(=S)N(Cc3cc(=O)c(O)co3)C2=O)cc1 is less than 30 µM?
Solution: rule not met

Exercise: Take the compound CCCCCN(CCCCC)c1ccc(/C=C2\SC(=S)N(CCS(=O)(=O)NC(=O)c3ccc(F)cc3)C2=O)cc1 and say whether its IC50 is less than 30 µM.
Solution: rule not met
